The origin of these recorded values is paper PMC5491650.

targetEntity: hCE1 (Homo sapiens, UniProt P23141)
Sequence (P23141 18-567): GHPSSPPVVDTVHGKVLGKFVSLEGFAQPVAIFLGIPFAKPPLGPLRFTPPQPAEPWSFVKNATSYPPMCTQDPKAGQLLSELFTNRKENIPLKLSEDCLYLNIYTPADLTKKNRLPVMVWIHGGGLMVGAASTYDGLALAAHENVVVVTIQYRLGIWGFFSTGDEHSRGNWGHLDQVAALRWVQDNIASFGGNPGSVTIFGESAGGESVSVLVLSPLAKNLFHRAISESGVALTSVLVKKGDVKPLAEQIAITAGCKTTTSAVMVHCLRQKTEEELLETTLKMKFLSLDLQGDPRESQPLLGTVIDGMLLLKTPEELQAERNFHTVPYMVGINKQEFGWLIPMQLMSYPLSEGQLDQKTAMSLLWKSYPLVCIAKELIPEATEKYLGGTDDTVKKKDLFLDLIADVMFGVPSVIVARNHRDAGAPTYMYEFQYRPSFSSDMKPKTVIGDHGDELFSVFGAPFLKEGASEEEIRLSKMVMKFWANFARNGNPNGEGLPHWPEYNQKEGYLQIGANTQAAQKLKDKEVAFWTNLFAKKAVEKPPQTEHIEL
assayOverview: hCE1 inhibition assay, DME hydrolysis in human liver microsomes;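 note: carboxylesterase inhibition read out as probe hydrolysis, with DME serving as hCE1 substrate and DDAB as hCE2 substrate, in DMSO below 2% (V/V)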
Assay type: biochemical
Parameters: tissue Celsis (Shanghai, China); host or cells: human liver microsomes (HLM)
runConditions: IC50 against hCE1, DME hydrolysis in HLM
measuredProperty: IC50

### Prompt Consider the compound shown here: CC1CCC2(C(=O)O)CCC3(C)C(=CCC4C5(C)CCC(OC(=O)CCC(=O)O)C(C)(C)C5CCC43C)C2C1C (stereo not shown) What is its recorded IC50?
### Response 12.6 nM

====

# Observed Log(IC50_hCE1) listing for each entry below
targetEntity: hCE1 (Homo sapiens)
assayOverview: hCE1 inhibition assay, DME hydrolysis in human liver microsomes
Assay type: biochemical
Parameters: tissue Celsis (Shanghai, China); host or cells: human liver microsomes (HLM)
runConditions: log of the experimental IC50 in μM, used for 3D-QSAR
The figure you give is taken to be in μM; do not add the unit.

{"compound": "CC1CCC2(C(=O)O)CCC3(C)C(=CCC4C5(C)CCC(OC(=O)CCC(=O)O)C(C)(C)C5CCC43C)C2C1C (stereo not drawn)", "outputUnit": "μM", "Observed Log(IC50_hCE1)": -1.921}
{"compound": "C=C(CCC(C(=O)O)C1C(O)CC2(C)C3=CCC4C(C)(CCC(OC(C)=O)C4(C)C)C3=CCC12C)C(C)C (stereo not drawn)", "outputUnit": "μM", "Observed Log(IC50_hCE1)": 1.441}
{"compound": "CC1=C(O)C(=O)C=C2C1=CC=C1[C@@]2(C)CC[C@@]2(C)[C@@H]3C[C@](C)(C(=O)O)CC[C@]3(C)CC[C@]12C", "outputUnit": "μM", "Observed Log(IC50_hCE1)": 0.6464}
{"compound": "C=C(CCC(C(=O)O)C1C(O)CC2(C)C3=C(CCC12C)C1(C)CCC(OC(C)=O)C(C)(C)C1CC3)C(C)C (stereo not drawn)", "outputUnit": "μM", "Observed Log(IC50_hCE1)": 1.337}
{"compound": "C[C@H]1[C@H](C)CC[C@]2(C(=O)O)CC[C@]3(C)C(=CC[C@@H]4[C@@]5(C)CC[C@H](O)C(C)(C)[C@@H]5CC[C@]43C)[C@H]12", "outputUnit": "μM", "Observed Log(IC50_hCE1)": -0.6198}

### Prompt What reported Observed Log(IC50_hCE1) corresponds to CC1(C)CC[C@]2(C(=O)O)CC[C@]3(C)C(=CC[C@@H]4[C@@]5(C)CC[C@H](O)C(C)(C)[C@@H]5CC[C@]43C)[C@@H]2C1 on hCE1 (Homo sapiens)?
### Response -0.5528
